Attribution: patent EP0606463B1

For each record, write down the corresponding fold by which cyclo SS-octa was more potent than the analog.
# subjectOfTest: rat NMB receptor (Rattus norvegicus, UniProt P24053)
# Construct: a full length NMB-preferring bombesin receptor clone generated from rat esophagus; expressed in transfected cells; host or cells: BALB 3T3 cells
# Sequence (P24053 whole entry): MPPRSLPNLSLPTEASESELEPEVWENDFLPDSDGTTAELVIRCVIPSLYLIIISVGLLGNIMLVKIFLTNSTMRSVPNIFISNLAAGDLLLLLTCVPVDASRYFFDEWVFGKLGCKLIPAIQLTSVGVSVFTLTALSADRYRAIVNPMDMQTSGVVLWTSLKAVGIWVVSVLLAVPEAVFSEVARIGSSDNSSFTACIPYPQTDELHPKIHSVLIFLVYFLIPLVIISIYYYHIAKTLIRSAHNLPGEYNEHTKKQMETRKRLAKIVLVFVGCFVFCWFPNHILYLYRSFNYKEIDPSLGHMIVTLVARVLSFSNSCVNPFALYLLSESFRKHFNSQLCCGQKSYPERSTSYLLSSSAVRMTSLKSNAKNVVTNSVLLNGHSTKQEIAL
# assayName: Binding of 125I-[D-Tyr0]NMB to NMB-R transfected BALB 3T3 cells
# setupConditions: inhibition of ^125I-[Tyr^0]NMB binding to NMB-R transfected cells
Where a SMILES comes first, the peptide text is derived from it. Bridges are numbered along the chain shown (N, C = ends). [ ]: non-standard residue; d: D form. 2Nal = N[C@@H](Cc1ccc2ccccc2c1)C(=O)O; d2Nal = N[C@H](Cc1ccc2ccccc2c1)C(=O)O
One number for each entry, in fold.

Below, 3 compounds whose answers are already recorded.
>  <compound>
CC(C)[C@@H]1NC(=O)[C@H](CCCCN)NC(=O)[C@@H](Cc2c[nH]c3ccccc23)NC(=O)[C@H](Cc2ccc(O)cc2)NC(=O)[C@H](NC(=O)[C@H](N)Cc2ccc3ccccc3c2)CSSC[C@@H](C(=O)N[C@@H](Cc2ccc3ccccc3c2)C(N)=O)NC1=O [Analog #10, [D-Cys^2]-cyclo SS-octa] (H-[d2Nal][dC]Y[dW]KVC[2Nal]-NH2; disulfide 2-7; N-terminus assumed)

>  <measuredResult>
6

$$$$
>  <compound>
CC(C)[C@@H]1NC(=O)[C@H](Cc2c[nH]cn2)NC(=O)[C@@H](Cc2c[nH]c3ccccc23)NC(=O)[C@H](Cc2ccc(O)cc2)NC(=O)[C@@H](NC(=O)[C@H](N)Cc2ccc3ccccc3c2)CSSC[C@@H](C(=O)N[C@@H](Cc2ccc3ccccc3c2)C(N)=O)NC1=O [Analog #14, [His^5]-cyclo SS-octa] (H-[d2Nal]CY[dW]HVC[2Nal]-NH2; disulfide 2-7; N-terminus assumed)

>  <measuredResult>
45

$$$$
>  <compound>
NCCCC[C@@H]1NC(=O)[C@@H](Cc2c[nH]c3ccccc23)NC(=O)[C@H](Cc2ccc(O)cc2)NC(=O)[C@@H](NC(=O)[C@H](N)Cc2ccc3ccccc3c2)CSSC[C@@H](C(=O)N[C@@H](Cc2ccc3ccccc3c2)C(N)=O)NC(=O)[C@H](Cc2ccccc2)NC1=O [Analog #13, [Phe^6]-cyclo SS-octa] (H-[d2Nal]CY[dW]KFC[2Nal]-NH2; disulfide 2-7; N-terminus assumed)

>  <measuredResult>
2

$$$$

Qu. State measured fold by which cyclo SS-octa was more potent than the analog of the compound CC(C)[C@@H]1NC(=O)[C@H](CCCCN)NC(=O)[C@@H](Cc2c[nH]c3ccccc23)NC(=O)[C@H](Cc2ccc(O)cc2)NC(=O)[C@@H](NC(=O)[C@H](N)Cc2ccccc2)CSSC[C@@H](C(=O)N[C@@H](Cc2ccc3ccccc3c2)C(N)=O)NC1=O [Analog #4, [D-Phe^1]-cyclo SS-octa] (H-[dF]CY[dW]KVC[2Nal]-NH2; disulfide 2-7; N-terminus assumed) with rat NMB receptor (Rattus norvegicus, UniProt P24053).
Ans. 4
